Taken from ChEMBL document CHEMBL5665443.

Biological target: Endonuclease 8-like 1 (Homo sapiens);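 also: fluorescence at 594 nm from quenched duplex DNA oligonucleotides released by NEIL1 cleavage and strand separation, reported as reduction of this enzyme activity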
Settings: Compound Concentration 10.0 uM, Hit No
Description: Inhibition of NEIL1 by quantifying inhibition of NEIL1-mediated cleavage and dissociation of quenched duplex DNA oligonucleotides, measured as fluorescence at 594 nm.
Measurement type: inhibition (%)

> print(dat)
                                    molecule  quantitative.readout
 1            Cc1ccnc(Nc2nc(-c3ccccn3)cs2)c1                 -0.88
 2     Cc1ccc2[nH]c(CNCCCc3ccncc3)cc(=O)c2c1                 -2.56
 3  CCCCCCNC(=O)Nc1ccc(S(=O)(=O)Nc2ccc(CCNC[C@H](O)COc3ccc(O)cc3)cc2)cc1                 -4.58
 4  CCc1nn2c(C)cc(C)nc2c1Cc1ccc(-c2nnc(C3CCNCC3)o2)cc1                  6.02
 5  CCOc1nc2cccc(C(=O)O)c2n1Cc1ccc(-c2ccccc2-c2nnn[nH]2)cc1                  2.02
 6  C[C@H](CO)Nc1nc(SCc2cccc(Cl)c2F)nc2[nH]c(=O)sc12                  8.99
 7  COc1ccc(CC(=O)NCc2ccccc2-c2ccccc2C(=O)NCc2ccc(F)cc2F)cc1                  0.75
 8   Cc1cc(Cn2nnc3c(-c4ccco4)nc(N)nc32)ccc1N                 -2.58
 9  CC1(C)Cc2c(CN3CCC4(CC3)CCN(C(=O)c3ccc(N)cn3)CC4)cccc2O1                  7.27
10  CN(C)[C@@H]1CCN(c2cc(-c3ccccc3)nc3ccnn23)C1                  4.86
11                  c1ccc2nc(N3CCNCC3)ccc2c1                  8.31
12  OC(CN1CCC(Cc2ccc(F)cc2)CC1)c1ccc(Cl)cc1 (stereo unspecified)                 0.602
13  NCCCNCCCCNCCC(=O)NCCCCCNC(=O)[C@H](CC(N)=O)NC(=O)Cc1ccc(O)cc1O                 0.898
14  COC(c1ccccc1)(c1ccccc1)[C@H](Oc1nc(C)cc(C)n1)C(=O)O                  9.14
15  NCCCCN(Cc1nc2ccccc2[nH]1)[C@H]1CCCc2cccnc21                  10.7
16  Cc1cc(OCCC(C)(C)O)cc(C)c1-c1ccc(F)c2c1CC[C@H]2Oc1ccc2c(c1)OC[C@H]2CC(=O)O                 -2.26
17  COc1cc(NC(=O)c2ccc(-c3ccc(Cl)cc3)o2)cc(OC)c1                  6.97
18  O=C(O)c1cccc(/C=C2/C[C@@H]3[C@@H](/C=C/[C@H](O)C4CCCCC4)[C@H](O)C[C@@H]3O2)c1                 -8.73
19  CCCCCNC(=O)NS(=O)(=O)c1cc([N+](=O)[O-])ccc1NC1CCCCC1                 -1.39
20  CN1CCC(C(=O)c2cccc(NC(=O)c3c(F)cc(F)cc3F)n2)CC1                  4.54
21  Cc1ccc(C(C)(O)c2nc3ccccc3s2)c(C)c1 (stereo unspecified)                   7.8
